test: NCI Yeast Anticancer Drug Screen. Data for the cln2 rad14 strain (AID 165);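 also: 0% = growth equal to vehicle treated cultures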; details: S. cerevisiae cln2 rad14 strain, at 50.0 µM, hits give high values
About 79,000 compounds went through this panel and 15% of them were active in at least one assay; those are over-represented in the sample as a whole.
The molecules listed here are annotated with their growth inhibition.
# value in %; strip the unit string

These recorded examples may help you get a feel for the data.
molecule="CC/C=C(\\CCC)C(C#N)(CC)C(=O)OCC (configuration not stated)" obs_value=-7.6
molecule=C#CCn1cc(F)c(=O)n(CC#C)c1=O obs_value=-33.9
molecule=CC(C)(O)c1c(F)c(F)c(F)c(F)c1F obs_value=17.6
molecule=CCc1ccccc1NC(=O)Nc1cc(C)ccn1 obs_value=21.3
molecule="O=C(NN1C(=O)C(Cl)C1c1cccc([N+](=O)[O-])c1)c1ccccc1O (configuration not stated)" obs_value=1.1

Continue with the molecule presented below.
Summary for this molecule, "N#CCC(=O)c1ccc(N)cc1" : growth inhibition is 13.9
